assay: Cmax in Wistar Han rat at 10 mg/kg, po; format: ADME, organism-based; design: route oral, dose 10 mg/kg; settings: in vivo
// reported Cmax for each item listed

{"Smiles str": "CCC(=O)CCCCC[C@@H]1NC(=O)[C@H]2CC23CCN(CCCCCCCCn2ccc4cc(c(OC)cc4c2=O)-c2cnc1[nH]2)CC3", "Cmax [nM]": 13}
{"Smiles str": "CCC(=O)CCCCC[C@@H]1NC(=O)[C@H]2CC23CCN(CCOCCn2ccc4cc(ccc4c2=O)-c2cnc1[nH]2)CC3", "Cmax [nM]": 62}

----------
test system: Human immunodeficiency virus; assay: Reactivation of HIV latency infected in human 2C4 cells in presence of 0.1 % NHS by luciferase reporter gene assay; assay type: functional, organism-based; settings: Human immunodeficiency virus 1, 2C4

{"Molecule": "CCC(=O)CCCCC[C@H](NC(=O)[C@H]1CC12CCN(CC)CC2)c1[nH]c(-c2ccc(F)cc2)nc1C(N)=O", "EC50": "193 nM"}
{"Molecule": "CCC(=O)CCCCC[C@H](NC(=O)[C@H]1CC12CCN(C)CC2)c1ncc(-c2ccc3c(c2)C2CCC3C2)[nH]1 (some centres undefined)", "EC50": "351 nM"}
{"Molecule": "CCC(=O)CCCCC[C@@H]1NC(=O)[C@H]2CC23CCN(CCCOCCn2ccc4cc(ccc4c2=O)-c2cnc1[nH]2)CC3", "EC50": "> 40000 nM"}
{"Molecule": "CCC(=O)CCCCC[C@H](NC(=O)C1CN(C)C1)c1ncc(-c2ccccc2)[nH]1", "EC50": "2470 nM"}
